Molecular target: SMARCA4 (Homo sapiens)
Construct: SMARCA2 and SMARCA4 protein degradation in MV4-11 cells; endogenous in cells; host or cells: MV4-11
Sequence (P51532 whole entry): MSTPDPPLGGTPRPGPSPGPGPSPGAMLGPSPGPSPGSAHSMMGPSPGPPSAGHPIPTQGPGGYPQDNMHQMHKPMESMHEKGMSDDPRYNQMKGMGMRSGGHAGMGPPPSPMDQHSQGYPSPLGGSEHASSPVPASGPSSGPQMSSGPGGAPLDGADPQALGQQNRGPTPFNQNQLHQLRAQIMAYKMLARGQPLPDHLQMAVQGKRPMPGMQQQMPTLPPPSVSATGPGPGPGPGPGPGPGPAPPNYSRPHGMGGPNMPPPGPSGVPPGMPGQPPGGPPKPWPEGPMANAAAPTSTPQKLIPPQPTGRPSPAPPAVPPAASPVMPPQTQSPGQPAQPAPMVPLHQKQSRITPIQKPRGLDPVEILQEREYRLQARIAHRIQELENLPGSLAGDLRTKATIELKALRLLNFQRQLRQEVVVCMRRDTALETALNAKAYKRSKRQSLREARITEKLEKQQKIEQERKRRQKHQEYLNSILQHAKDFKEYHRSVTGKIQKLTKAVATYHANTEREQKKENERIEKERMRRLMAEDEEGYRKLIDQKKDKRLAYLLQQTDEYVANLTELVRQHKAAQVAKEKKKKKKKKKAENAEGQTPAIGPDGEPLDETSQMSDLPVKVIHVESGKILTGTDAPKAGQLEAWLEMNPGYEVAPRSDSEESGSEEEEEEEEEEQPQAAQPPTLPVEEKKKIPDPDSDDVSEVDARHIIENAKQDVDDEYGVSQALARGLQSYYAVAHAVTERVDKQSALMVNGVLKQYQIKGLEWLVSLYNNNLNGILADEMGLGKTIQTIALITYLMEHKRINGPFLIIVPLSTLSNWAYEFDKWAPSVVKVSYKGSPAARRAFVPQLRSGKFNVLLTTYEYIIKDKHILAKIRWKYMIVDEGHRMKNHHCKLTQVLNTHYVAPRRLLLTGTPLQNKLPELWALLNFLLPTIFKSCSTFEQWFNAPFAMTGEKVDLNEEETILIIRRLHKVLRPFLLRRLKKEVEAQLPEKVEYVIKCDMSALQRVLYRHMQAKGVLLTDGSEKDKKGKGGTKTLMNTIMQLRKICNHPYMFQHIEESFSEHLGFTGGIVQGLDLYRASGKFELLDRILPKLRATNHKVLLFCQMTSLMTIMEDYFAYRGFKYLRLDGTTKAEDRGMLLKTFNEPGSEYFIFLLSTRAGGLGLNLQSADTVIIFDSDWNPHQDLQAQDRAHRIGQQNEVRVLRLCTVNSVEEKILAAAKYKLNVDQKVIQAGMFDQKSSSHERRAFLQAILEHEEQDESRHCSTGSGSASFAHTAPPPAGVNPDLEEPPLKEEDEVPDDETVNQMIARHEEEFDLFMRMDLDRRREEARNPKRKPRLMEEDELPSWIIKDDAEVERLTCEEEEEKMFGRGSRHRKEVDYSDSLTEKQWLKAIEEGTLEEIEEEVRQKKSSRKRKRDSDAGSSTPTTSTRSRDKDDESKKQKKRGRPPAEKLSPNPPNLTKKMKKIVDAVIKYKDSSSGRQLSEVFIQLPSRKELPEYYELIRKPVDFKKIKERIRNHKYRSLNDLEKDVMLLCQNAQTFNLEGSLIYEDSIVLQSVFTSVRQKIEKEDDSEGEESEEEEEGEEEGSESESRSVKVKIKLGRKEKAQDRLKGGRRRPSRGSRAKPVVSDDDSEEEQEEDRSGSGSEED
Assay: SMARCA4 Western blot MV4-11 degradation
Format: cell-based
Details: MV4-11 cells, 24 h, read-out: SMARCA4 WB MV411 degradation 24 h: Average external-Abs DC50
quantity.measured: DC50

Provide the reported DC50 of each entry below, same order.
1. Cc1ncsc1-c1ccc(CNC(=O)[C@@H]2C[C@@H](O)CN2C(=O)[C@@H](NC(=O)[C@H]2CC[C@H](CCCCCN3CCC(Cn4cc(-c5cc(-c6ccccc6O)nnc5N)cn4)CC3)CC2)C(C)(C)C)cc1
2. Cn1c(=O)n(C2CCC(=O)NC2=O)c2ccc([C@H]3CC[C@@H](N4CCC(c5cnc(N6C7CCC6CN(c6cc(-c8ccccc8O)nnc6N)C7)nc5)CC4)CC3)cc21 (some centres unmarked)

["< 100 nM", "< 100 nM"]

Provide the reported DC50 of each entry below, same order.
1. Cc1ncsc1-c1ccc(CNC(=O)[C@@H]2C[C@@H](O)CN2C(=O)[C@@H](NC(=O)CN2CCN(C3CCC(c4cnc(N5C6CCC5CN(c5cc(-c7ccccc7O)nnc5N)C6)nc4)CC3)CC2)C(C)(C)C)cc1 (some centres unmarked)
2. Cc1ncsc1-c1ccc(CNC(=O)[C@@H]2C[C@@H](O)CN2C(=O)[C@@H](NC(=O)[C@H]2CC[C@@H](N3CCC(n4cc(-c5cc(-c6ccccc6O)nnc5N)cn4)CC3)CC2)C(C)(C)C)cc1
3. Cc1ncsc1-c1ccc(CNC(=O)[C@@H]2C[C@@H](O)CN2C(=O)[C@@H](NC(=O)[C@H]2CC3(C2)C[C@H](N2CCC(n4cc(-c5cc(-c6ccccc6O)nnc5N)cn4)CC2)C3)C(C)(C)C)cc1 (some centres unmarked) [I-390]

1: < 100 nM; 2: > 1000 nM; 3: < 100 nM
